Assay: NCI Yeast Anticancer Drug Screen. Data for the rad14 strain (AID 159);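 further: 0% = growth of vehicle-treated control cultures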
Conditions: S. cerevisiae rad14 strain growth inhibition; at 1.2 µM; hits give high values
About 79,000 compounds went through this panel and 15% of them were active in at least one assay; those are over-represented in the sample as a whole.

compound	growth inhibition, %
CCc1nc2ccc(NCCN(C)C)c3c(=O)c4ccccc4n1c23	31
O=[N+]([O-])/C=C/c1cc(Cl)c(/C=C/[N+](=O)[O-])cc1Cl	25
CC12C(=O)OC(=O)C(c3ccccc31)c1ccccc12	-4
O=C1OC(C2=CC(=O)c3ccccc3C2=O)C(Cl)=C1Cl (stereo unspecified)	0
COc1ccc(C(NCCNC(c2ccc(OC)c(OC)c2)c2cc3c(cc2O)OCO3)c2cc3c(cc2O)OCO3)cc1OC (stereo unspecified)	1
COC(=O)/C=C(/CC(=O)OC)C(=O)OC	0

###

Assay: NCI Yeast Anticancer Drug Screen. Data for the cln2 rad14 strain (AID 165);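 further: 0% = growth equal to vehicle treated cultures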
Conditions: S. cerevisiae cln2 rad14 strain, at 50.0 µM (retest, dose inferred, filed as 5.0), hits give high values
About 79,000 compounds went through this panel and 15% of them were active in at least one assay; those are over-represented in the sample as a whole.
Output schema: class label derived from growth inhibition. Mapping: lowest = under 20%, middle = from 20% up to 90%, highest = 90% and over

compound	answer_label
Cc1ccc(NC(c2ccccc2)c2ccc3cccnc3c2O)cc1 (stereo unspecified)	middle
COC(=O)C1(C)CCc2c(ccc3ccccc23)C1=O (stereo unspecified)	lowest
O=C1C=C(N2CCN(c3ccccn3)CC2)C(=O)c2c(O)ccc(O)c21	lowest
Cc1ccc(S/C(=C\C(=O)O)c2ccccc2)cc1	middle
CC(O)=NC(Cc1ccc2ccccc2c1)C(O)=NC(Cc1ccc(Cl)cc1)C(O)=NC(Cc1c[nH]c2ccccc12)C(O)=NC(CO)C(O)=NC(Cc1ccc(O)cc1)C(O)=NC(CCCN=C(N)N)C(O)=NC(CC(C)C)C(O)=NC(CCCN=C(N)N)C(=O)N1CCCC1C(O)=NC(C)C(=N)O (stereo unspecified)	lowest
CC(C)CN(CC(C)C)C(=O)c1ccc(Cl)c(Cl)c1	middle
O/N=C\c1c(O)ccc2ccccc12	middle
CCOC(=O)C(C(=O)OCC)=P(c1ccccc1)(c1ccccc1)c1ccccc1	lowest
COc1cccc2c1C(=O)c1c(O)c3c(c(O)c1C2=O)CC(O)(C(O)CO)CC3OC1CC(N2CCOCC2)C(O)C(C)O1 (stereo unspecified)	middle
NC(N)=NS(=O)(=O)c1ccc(Nc2c3ccccc3nc3c(C(=O)NCCO)cccc23)cc1	lowest
CCCC(O)C1CC(C(C)C)CCC1C (stereo unspecified)	middle
CCCC(=O)Oc1c(C)cc([N+](=O)[O-])cc1[N+](=O)[O-]	highest
CCCCN(CCCC)CCC(O)c1cc2c(Cl)cc(Cl)cc2c2cc(C(F)(F)F)ccc12 (stereo unspecified)	highest
COc1cccc2c1C(=O)c1c(O)c3c(c(O)c1C2=O)C[C@@](O)(C(C)=O)C[C@@H]3OC1CC(OC(C)=O)C(OC(C)=O)C(C)O1 (stereo partly specified)	highest
CCc1c[n+]([O-])c(C)cc1[N+](=O)[O-]	highest
Cc1c(C)c(C)c(CSC(=N)N)c(C)c1C	highest
CCOC(=O)[C@H]1Nc2ccc(OC)cc2C2c3ccccc3CC21 (stereo partly specified)	middle
COC1CCC(O)C(/C=C/[N+](=O)[O-])C1 (stereo unspecified)	highest
CCOC1=C/C(=N\Nc2ccc([N+](=O)[O-])cc2)CCC1	lowest

###

Assay: NCI Yeast Anticancer Drug Screen. Data for the wt2 strain (AID 169);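 further: 0% = growth of vehicle-treated yeast cultures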
Conditions: S. cerevisiae wt2 strain growth inhibition; at 1.2 µM; hits give high values
Experimental: Growth inhibition of yeast strains with defined genetic alterations is measured as a screen for potential anti-cancer activity. Selected strains with alterations in DNA damage repair or cell cycle control were exposed to compounds and growth inhibition was measured relative to vehicle treated controls. The strain used in this assay is wt2
About 79,000 compounds went through this panel and 15% of them were active in at least one assay; those are over-represented in the sample as a whole.

compound	scale_unit	growth inhibition
CN(C)/C=C/c1nnc([N+](=O)[O-])s1	%	-1
NC(=S)NC(=S)Nc1ccccc1	%	-5
Nc1n[n+]([O-])c2ccc(Cl)cc2[n+]1[O-]	%	8
COc1ccc([N+](=O)[O-])c2c(NCCCN(C)C)c3ccccc3nc12	%	1
Oc1ccc2ccccc2c1CCc1c(O)ccc2ccccc12	%	7
O=[n+]1c2ccccc2n([O-])c2cc(Br)ccc21	%	47
Oc1ccc(O)c(Cc2ccccc2)c1	%	-2
CCCCCCN(CCCCCC)CC(O)c1ccnc2ccc(OC)cc12 (configuration not stated)	%	-1
C/C=C/SC(=Nc1ccccc1)Nc1ccccc1	%	-3
O=C1OC(OC/C(Br)=C(\Br)COC2OC(=O)C(Cl)=C2Cl)C(Cl)=C1Cl (configuration not stated)	%	-1
Cc1nc2ccccc2nc1NNc1ccccc1	%	3
CC(C)OC(=O)Nc1ccc2nc(-c3cscn3)[nH]c2c1	%	-1

###

Assay: NCI Yeast Anticancer Drug Screen. Data for the wt1 strain (AID 149);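 further: 0% = growth of vehicle-treated wt1 cultures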
Details: S. cerevisiae wt1 strain (SPY 50644) growth inhibition; at 100.0 µM
Compounds without any hit were thinned out: in the full panel of roughly 79,000, 15% have a hit. Calls of active or inactive are those of the source. Rule as the data show it: active = growth inhibition above about 70%; inactive = the rest.
Outcome codes: active, inactive

molecule	answer_label
CNC(=O)OCc1c(COC(=O)NC)c(-c2ccc(Cl)cc2)n2c1CCC2	active
CCN(CC)CCOc1cc(C)c2cc(Cc3ccccc3)ccc2n1	active
COc1ccc(C(NCCNC(c2ccc(OC)c(OC)c2)c2cc3c(cc2O)OCO3)c2cc3c(cc2O)OCO3)cc1OC (stereo not drawn)	active
Oc1[nH]c2ccccc2c1N=NC(=S)N1CCCCC1	active
CCCC/C([O-])=C1/C(=O)N(c2ccccc2)N=C1C.CCCC/C([O-])=C1/C(=O)N(c2ccccc2)N=C1C.[Cu+2]	inactive
c1ccc(CCN2CCc3ccccc3C2)cc1	inactive
COc1c(O)c(C=O)c(Br)c(C=O)c1O	inactive
O=C(COC(=O)c1ccccc1)c1ccc(Br)cc1	active
c1ccc2c(c1)sc1c3cnccc3ccc21	inactive
Nc1ccn(C2OC(COP(=O)(O)O)C(O)C2O)c(=O)n1 (stereo not drawn)	inactive
c1ccc(Cc2cc(-c3ccccc3)n[nH]2)cc1	inactive
O=C(O)C1CC(c2ccccc2)=NN1c1ccccc1 (stereo not drawn)	active
CNC(=O)OCc1c(COC(=O)NC)c(-c2ccc(Cl)c(Cl)c2)n2c1SCC2	inactive
Cc1cc2c(cc1C)[n+]([O-])c(-c1nc3ccccc3s1)c(N)[n+]2[O-]	inactive
COc1cccc2c1C(=O)c1c(O)c3c(c(O)c1C2=O)C[C@@](O)(C(C)=O)C[C@@H]3OC1CC(OC(C)=O)C(OC(C)=O)C(C)O1 (stereo partly drawn)	inactive
O=C1c2ccccc2C(=O)c2cc(CCl)ccc21	inactive
CCn1c(O)c(C=Nc2ccccc2)s/c1=N/Nc1nc(-c2ccccc2)cs1	inactive
c1ccc2cc(NCNc3ccc4ccccc4c3)ccc2c1	inactive
Cc1cc(NCCCCCCCCNc2cc(C)nc3cc(N)ccc23)c2ccc(N)cc2n1	active
COc1cc(CSc2ccc(O)cc2)cc(O)c1O	inactive
COC(=O)C1(C)CCc2c(ccc3ccccc23)C1=O (stereo not drawn)	inactive
Cc1ccc(NC(=O)/C(CC2N=c3c(ccc4c(O)c5ccccc5c(O)c34)=NC2O)=N/NC(C)(C)C)cc1 (stereo not drawn)	inactive
O=C(c1ccc([N+](=O)[O-])cc1)C1N=NCC1c1ccccc1 (stereo not drawn)	inactive

###

Assay: NCI Yeast Anticancer Drug Screen. Data for the mgt1 strain (AID 153)
Conditions: S. cerevisiae mgt1 mutant growth inhibition; at 3.7 µM; hits give high values
The panel holds about 79,000 compounds, 15% with a hit somewhere; the sample as a whole holds those more often.
result_type: growth inhibition (%)

compound	result_type	reading
CN(CCN(C)Cc1ccccc1)Cc1ccccc1	growth inhibition	-4
COc1ccc(C(=O)c2ccccc2C(=O)c2ccccc2OC)cc1	growth inhibition	-1
O=[N+]([O-])c1ccc(N/N=C/Cc2ccccc2)c([N+](=O)[O-])c1	growth inhibition	1
COC(=O)/C=C(/CC(=O)OC)C(=O)OC	growth inhibition	0
S=c1[nH]c2cc3ccccc3cc2[nH]1	growth inhibition	-7
CC(O)=NC(Cc1ccc2ccccc2c1)C(O)=NC(Cc1ccc(Cl)cc1)C(O)=NC(Cc1c[nH]c2ccccc12)C(O)=NC(CO)C(O)=NC(Cc1ccc(O)cc1)C(O)=NC(CCCN=C(N)N)C(O)=NC(CC(C)C)C(O)=NC(CCCN=C(N)N)C(=O)N1CCCC1C(O)=NC(C)C(=N)O (stereo not drawn)	growth inhibition	-2
O=[N+]([O-])c1cc(S(=O)(=O)Nc2ccccc2)ccc1Nc1ccccc1	growth inhibition	11
c1ccc(Cc2cc(-c3ccccc3)n[nH]2)cc1	growth inhibition	-8
O=C1Nc2ccccc2/C1=C/c1ccccc1	growth inhibition	-22
O=C(NO)Nc1cc(Cl)cc(Cl)c1	growth inhibition	16
Cc1c(-c2ccccn2)ccc2ccccc12	growth inhibition	-1
Oc1ccc2c(c1)C(O)CCCC2 (stereo not drawn)	growth inhibition	1
COc1cccc(/C=N/C(/N=C/c2cccc(OC)c2O)c2cccc(OC)c2O)c1O	growth inhibition	-2
CCOc1ccc(NC(=O)C2=C(C)NC(C)=C(C(=O)Nc3ccc(OCC)cc3)C2c2cccc([N+](=O)[O-])c2)cc1	growth inhibition	-2
CC(=O)Nc1ccc2c(c1)-c1ccccc1C2=O	growth inhibition	-4
N#CNC(N)=Nc1cc2ccccc2c2ccccc12	growth inhibition	40
CCCOC(=O)C(F)C(Br)C(=O)OCCC (stereo not drawn)	growth inhibition	90
CCOC(=O)CC1(C(=O)OCC)c2[nH]c3ccccc3c2CCN1Cc1ccccc1 (stereo not drawn)	growth inhibition	-1
OCc1ccccc1Cc1ccccc1	growth inhibition	-5
c1ccc2cc(NCNc3ccc4ccccc4c3)ccc2c1	growth inhibition	0
COc1cc(CSc2ccc(O)cc2)cc(O)c1O	growth inhibition	-3
CC1=NOC(=O)/C1=C/c1ccc2c(c1)OCO2	growth inhibition	1
O=C(CC(C(=O)O)N1CCOCC1)c1ccccc1 (stereo not drawn)	growth inhibition	-3
